B1: Hairpin Ribozyme (parent)
chain: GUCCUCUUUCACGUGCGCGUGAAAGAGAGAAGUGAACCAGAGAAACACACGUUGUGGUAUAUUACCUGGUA

Variants of: B1
Test: self-cleavage, relative activity (ratio to wild type); higher = more cleavage; co-transcriptional
Each entry below carries its recorded self-cleavage.
Reply briefly: the number, and no unit.

Known results for variants:
Q: // returns reported self-cleavage for input U2G C66G
Ans: 0.124

Q: Fill blank: measured self-cleavage of the variant A26C A49C is ____.
Ans: 0.218

Q: Which self-cleavage is listed for U7G A35C ?
Ans: 0.757

Q: Look at this variant and give its reported self-cleavage. U53G G69C
Ans: 0.316

Q: Given the entry G15A A43G , report its measured self-cleavage.
Ans: 0.155

Q: GET /values?readout=self-cleavage&item= G1C C38G
Ans: 0.112

Q: Return reported self-cleavage; argument: G25C G57C
Ans: 0.12

Q: Query: self-cleavage; subject: C38A G69A
Ans: 0.146

New cases:
Q: Look up self-cleavage: A24U C37G
Ans: 0.292
